# Species: Rattus norvegicus
# ASSAY NOTES: Open TG-GATES - Regimen: Daily Repeat
# Type: toxicity, organism-based, Sprague-Dawley
# Design: regimen Daily Repeat, gender Male, age 6 weeks
# CONDITION NOTES: in vivo, po, 0 mg/kg, […], tissue Plasma, route gavage, dose level Control, time 14 day
// reported ALT for each item listed
READOUT LABEL: ALT (IU/L)

1. CC(CCc1ccccc1)NCC(O)c1ccc(O)c(C(N)=O)c1 (configuration not stated)    45.8
2. CC(N)=O [ACETAMIDE]    33.2
3. O=C(O)COc1nn(Cc2ccccc2)c2ccccc12    32
4. CC(C)Cc1ccc(C(C)C(=O)O)cc1 (configuration not stated)    37.4
5. CCN(CC)N=O    31
6. CC[C@@H](CO)NCCN[C@@H](CC)CO    41
7. CC(=O)Nc1ccc2c(c1)Cc1ccccc1-2    35
